Entries and their EC50
target: UniProt P31421; assay: mGlu2 GIRK thallium flux assay; settings: read-out: mGlu2 PAM EC50; PAM mode; test compound, then EC20 glutamate […] later in the presence of thallium; mean ± SEM, at least three experiments
# unit: µM | format: bare number

Solved cases below.
• CC(=O)c1ccc(OCc2cccc(-c3cccc(C(=O)O)c3)c2)c(C)c1O = 0.035
• Cc1c(OCc2cccc(-c3ccc(F)c(C(=O)O)c3)c2)ccc(C(=O)CC(C)(C)C)c1O = 0.208
• COc1ccc(C(=O)NCC(C)C)cc1OCCCCOc1ccc(C(=O)CC(C)(C)C)c(O)c1C = 6.4
• COc1ccc(C(=O)O)cc1-c1cccc(COc2ccc(C(=O)CC(C)(C)C)c(O)c2C)c1 = 0.118
• COc1ccc(-c2nsc(=O)[nH]2)cc1OCCCCOc1ccc(C(=O)CC(C)(C)C)c(O)c1C = 2.22
• Cc1c(OCc2cccc(-c3ccc(Cl)c(C(=O)O)c3)c2)ccc(C(=O)CC(C)C)c1C = 0.815

Entry `CCN(CC)C(=O)c1ccc(OC)c(OCCCCOc2ccc(C(=O)CC(C)(C)C)c(O)c2C)c1` ; EC50 = 0.608

Entry `Cc1c(OCc2nnc(-c3cccc(C(=O)O)c3)s2)ccc(C(=O)CC(C)(C)C)c1O` ; EC50 = 1.66

Entry `COc1ccc(-c2noc(=S)[nH]2)cc1OCCCCOc1ccc(C(=O)CC(C)(C)C)c(O)c1C` ; EC50 = 1.03

* * *

target: mGlu3 (Rattus norvegicus (Rat), UniProt P31422); experiment: mGlu3 GIRK thallium flux assay; settings: read-out: mGlu3 PAM Max
Sequence (P31422 23-879): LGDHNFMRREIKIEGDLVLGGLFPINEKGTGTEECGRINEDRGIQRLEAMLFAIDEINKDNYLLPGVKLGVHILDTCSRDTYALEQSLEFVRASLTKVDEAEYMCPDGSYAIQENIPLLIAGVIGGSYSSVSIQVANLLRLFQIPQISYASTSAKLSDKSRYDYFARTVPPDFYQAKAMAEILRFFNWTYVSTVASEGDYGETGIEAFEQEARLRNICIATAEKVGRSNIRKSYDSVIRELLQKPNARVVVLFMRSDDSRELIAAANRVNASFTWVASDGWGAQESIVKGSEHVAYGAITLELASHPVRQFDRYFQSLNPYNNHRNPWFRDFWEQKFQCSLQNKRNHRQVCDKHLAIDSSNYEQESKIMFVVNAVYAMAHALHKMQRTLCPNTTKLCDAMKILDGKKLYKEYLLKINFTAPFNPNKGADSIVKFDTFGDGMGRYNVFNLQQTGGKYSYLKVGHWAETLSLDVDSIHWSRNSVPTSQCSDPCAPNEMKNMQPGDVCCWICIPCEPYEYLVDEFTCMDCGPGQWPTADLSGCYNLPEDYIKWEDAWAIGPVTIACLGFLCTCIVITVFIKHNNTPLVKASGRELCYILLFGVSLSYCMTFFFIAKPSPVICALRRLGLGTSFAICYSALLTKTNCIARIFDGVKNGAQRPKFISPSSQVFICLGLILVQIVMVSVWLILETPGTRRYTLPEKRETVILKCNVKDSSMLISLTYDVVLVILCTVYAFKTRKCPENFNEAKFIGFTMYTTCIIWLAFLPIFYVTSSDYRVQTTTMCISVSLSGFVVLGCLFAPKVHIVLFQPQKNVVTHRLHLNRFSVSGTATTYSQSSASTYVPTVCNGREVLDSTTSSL
value type: Emax (%)
# unit: % | format: bare number

Solved cases below.
• Cc1c(OCc2ccc(-c3cccc(C(=O)O)c3)o2)ccc(C(=O)CC(C)(C)C)c1O = 110
• Cc1cc(-c2cccc(COc3ccc(C(=O)CC(C)(C)C)c(O)c3C)c2)ccc1C(=O)O = 78.3
• COc1ccc(B(O)O)cc1OCCCCOc1ccc(C(=O)CC(C)(C)C)c(O)c1C = 26.2

Form field Emax for item `Cc1c(OCc2cccc(-c3cccc(C(=O)O)c3)c2)ccc(C(=O)CC2CCCC2)c1O` on mGlu3 (Rattus norvegicus (Rat), UniProt P31422): 94

Form field Emax for item `Cc1c(OCc2cccc(-c3cc(C(=O)O)ccc3F)c2)ccc(C(=O)CC(C)(C)C)c1O` on mGlu3 (Rattus norvegicus (Rat), UniProt P31422): 85.6

* * *

target: UniProt P31421; assay: mGlu2 GIRK thallium flux assay; details: PAM mode; % Glutamate Max; mean ± SEM, at least three experiments
Lab note - cut at 80% for mGlu2 PAM Max: met if strictly below, not met if not.

Study these solved cases before continuing.
• Cc1c(OCc2cccc(-c3ccc(Cl)c(C(=O)O)c3)c2)ccc(C(=O)CC(C)C)c1O [compound 169] = met
• Cc1c(OCc2cccc(-c3ccc(Cl)c(C(=O)O)c3)c2)ccc(C(=O)CC(C)C)c1C [compound 170] = met
• Cc1c(OCc2cccc(COc3ccc(C(=O)O)cc3)c2)ccc(C(=O)CC(C)C)c1O [compound 125] = not met
• COc1ccc(C(=O)N2CCN(S(C)(=O)=O)CC2)cc1OCCCCOc1ccc(C(=O)CC(C)(C)C)c(O)c1C [compound 107] = met
• Cc1c(OCc2cccc(-c3ccc(Cl)c(C(=O)O)c3)c2)ccc(C(=O)CC(C)C)c1O [compound 172] = met

IN: Consider the compound Cc1c(OCc2cccc(-c3ccc(Cl)c(C(=O)O)c3)c2)ccc(C(=O)CC2CCCC2)c1C [compound 171] . Is its mGlu2 PAM Max strictly less than 80%?
OUT: met

IN: Consider the compound Cc1c(OCc2cccc(-c3cccc(C(=O)O)c3)c2)ccc(C(=O)CCC(C)(C)C)c1O [compound 148] . Is its mGlu2 PAM Max strictly less than 80%?
OUT: not met

* * *

target: mGlu3 (Rattus norvegicus (Rat), UniProt P31422); assay: mGlu3 GIRK thallium flux assay; settings: read-out: mGlu3 PAM EC50; PAM mode; test compound, then EC20 glutamate […] later in the presence of thallium; mean ± SEM
pEC50: −log10 of the molar value.
Entries and their pEC50

Solved cases below.
* Cc1c(OCc2cccc(COc3ccc(C#N)cc3)c2)ccc(C(=O)CC(C)C)c1O [compound 118] | < 4.52
* Cc1c(OCc2cccc(COc3ccc(C(=O)O)cc3)c2)ccc(C(=O)CC2CCCC2)c1C [compound 124] | < 4.52
* COc1ccc(C(=O)N2CCNCC2)cc1OCCCCOc1ccc(C(=O)CC(C)(C)C)c(O)c1C [compound 105] | < 5.00
* Cc1c(OCCCCOc2cccc(C(=O)O)c2)ccc(C(=O)CC(C)C)c1C [Compound 22] | < 4.52
* Cc1c(OCc2cccc(-c3ccc(C(=O)O)cc3Cl)c2)ccc(C(=O)CC(C)(C)C)c1O [compound 147] | 5.64
* COc1ccc(C(=O)NC2CCCC2)cc1OCCCCOc1ccc(C(=O)CC(C)(C)C)c(O)c1C [compound 112] | < 4.52

Consider the record given below.
Form field pEC50 for item Cc1c(OCCCCOc2ccc(C(=O)O)cc2)ccc(C(=O)CC(C)C)c1C [Compound 18] on mGlu3 (Rattus norvegicus (Rat), UniProt P31422): < 4.52

* * *

biological target: mGlu3 (Rattus norvegicus (Rat), UniProt P31422); test: mGlu3 GIRK thallium flux assay; details: PAM mode; % Glutamate Max; mean ± SEM
Entries and their mGlu3 PAM Max
# unit: % | format: bare number

Solved cases below.
* Cc1c(OCc2cccc(-c3cccc(C(=O)O)c3)c2)ccc(C(=O)CCC(C)(C)C)c1O | 101.7
* Cc1c(OCc2cccc(-c3ccc(Cl)c(C(=O)O)c3)c2)ccc(C(=O)CC2CCCC2)c1C | 10.7

Entry `Cc1c(OCc2cccc(COc3ccc(C(=O)O)cc3)c2)ccc(C(=O)CC(C)C)c1O` ; mGlu3 PAM Max = 13.9

Entry `COc1ccc(C(=O)N2CCN(S(C)(=O)=O)CC2)cc1OCCCCOc1ccc(C(=O)CC(C)(C)C)c(O)c1C` ; mGlu3 PAM Max = 22.9

Entry `Cc1c(OCc2cccc(-c3ccc(Cl)c(C(=O)O)c3)c2)ccc(C(=O)CC(C)C)c1O` ; mGlu3 PAM Max = 76.1

* * *

Entries and their AUC(0→t)
assay: In vivo PK in rats, i.v. administration; set-up: species or system rat; conditions: 2 mg/kg

• COc1cc(C(=O)O)ccc1OCCCCOc1ccc(C(=O)CC(C)C)c(O)c1C [Compound 44] = 304.6 ± 25.8 (μmol/L)*min

Entry COc1ccc(C(=O)O)cc1OCCCCOc1ccc(C(=O)CC(C)C)c(O)c1C [Compound 50] ; AUC(0→t) = 77.2 ± 8.0 (μmol/L)*min

Entry Cc1c(OCCCCOc2ccc(F)c(C(=O)O)c2)ccc(C(=O)CC(C)C)c1O [Compound 36] ; AUC(0→t) = 123.7 ± 7.7 (μmol/L)*min

Entry Cc1c(OCCCCOc2ccc(C(=O)O)cc2)ccc(C(=O)CC(C)C)c1O [Compound 20] ; AUC(0→t) = 231.7 ± 42.12 (μmol/L)*min

* * *

target: mGlu3 (Rattus norvegicus (Rat), UniProt P31422); assay: mGlu3 GIRK thallium flux assay; details: read-out: mGlu3 PAM EC50; PAM mode; test compound, then EC20 glutamate […] later in the presence of thallium; mean ± SEM
Entries and their EC50

• Cc1c(OCc2cccc(-c3ccc(Cl)c(C(=O)O)c3)c2)ccc(C(=O)CC(C)C)c1O [compound 169] = 2.99 µM

Entry `COc1ccc(-c2noc(=O)[nH]2)cc1OCCCCOc1ccc(C(=O)CC(C)(C)C)c(O)c1C` ; EC50 = 1.23 µM

Entry `COc1ccc(/C(N)=N/O)cc1OCCCCOc1ccc(C(=O)CC(C)(C)C)c(O)c1C` ; EC50 = > 30 µM

Entry `Cc1c(OCc2ncc(-c3cccc(C(=O)O)c3)s2)ccc(C(=O)CC(C)(C)C)c1O` ; EC50 = 3.19 µM

Entry `Cc1c(OCCCCSc2ccccn2)ccc(C(=O)CC(C)C)c1O` ; EC50 = > 30 µM

Entry `COc1ccc(C(=O)NC(C)(C)C)cc1OCCCCOc1ccc(C(=O)CC(C)(C)C)c(O)c1C` ; EC50 = > 30 µM

* * *

target: mGlu2 (Rattus norvegicus (Rat)); experiment: mGlu2 GIRK thallium flux assay; conditions: read-out: mGlu2 PAM Max;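 further: Cell-based assay, rate of fluorescence rise right after thallium plus agonist addition read on a kinetic imaging plate reader, normalized to vehicle and maximal agonist control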
Sequence (P31421 19-872): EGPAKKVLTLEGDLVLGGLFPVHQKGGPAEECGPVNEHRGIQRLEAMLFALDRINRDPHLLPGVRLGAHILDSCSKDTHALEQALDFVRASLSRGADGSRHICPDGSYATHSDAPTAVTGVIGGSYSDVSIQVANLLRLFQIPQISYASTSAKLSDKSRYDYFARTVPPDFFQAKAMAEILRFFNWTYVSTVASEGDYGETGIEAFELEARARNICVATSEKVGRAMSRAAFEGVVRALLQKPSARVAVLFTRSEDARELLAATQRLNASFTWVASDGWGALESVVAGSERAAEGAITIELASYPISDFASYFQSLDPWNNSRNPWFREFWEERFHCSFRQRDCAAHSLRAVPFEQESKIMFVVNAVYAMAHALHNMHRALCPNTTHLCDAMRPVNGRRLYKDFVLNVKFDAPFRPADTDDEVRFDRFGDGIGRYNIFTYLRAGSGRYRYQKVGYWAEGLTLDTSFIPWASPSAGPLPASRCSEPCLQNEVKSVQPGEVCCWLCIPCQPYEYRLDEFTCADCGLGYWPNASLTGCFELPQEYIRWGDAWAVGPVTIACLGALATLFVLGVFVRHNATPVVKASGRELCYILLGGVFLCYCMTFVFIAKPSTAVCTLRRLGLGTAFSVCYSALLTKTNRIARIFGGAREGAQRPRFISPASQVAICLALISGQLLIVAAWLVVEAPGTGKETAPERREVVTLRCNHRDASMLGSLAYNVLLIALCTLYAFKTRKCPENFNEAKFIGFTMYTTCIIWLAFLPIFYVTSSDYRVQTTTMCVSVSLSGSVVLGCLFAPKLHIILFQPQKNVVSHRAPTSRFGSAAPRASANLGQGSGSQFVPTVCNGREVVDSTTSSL
Lab note - cut at 90% for Emax: y if strictly below, n if not.

Study these solved cases before continuing.
* Cc1c(OCc2cnc(-c3cccc(C(=O)O)c3)cn2)ccc(C(=O)CC(C)(C)C)c1O | n
* COc1cc(C(=O)NO)ccc1OCCCCOc1ccc(C(=O)CC(C)(C)C)c(O)c1C | y
* Cc1c(OCc2cccc(-c3cncc(C(=O)O)c3)c2)ccc(C(=O)CC(C)(C)C)c1O | n

IN: Consider the compound `COc1ccc(/C(N)=N/O)cc1OCCCCOc1ccc(C(=O)CC(C)(C)C)c(O)c1C` . Is its Emax strictly less than 90%?
OUT: y
